Biological target: human MC3R (human, UniProt P41968 1-323)
Sequence (P41968 whole entry): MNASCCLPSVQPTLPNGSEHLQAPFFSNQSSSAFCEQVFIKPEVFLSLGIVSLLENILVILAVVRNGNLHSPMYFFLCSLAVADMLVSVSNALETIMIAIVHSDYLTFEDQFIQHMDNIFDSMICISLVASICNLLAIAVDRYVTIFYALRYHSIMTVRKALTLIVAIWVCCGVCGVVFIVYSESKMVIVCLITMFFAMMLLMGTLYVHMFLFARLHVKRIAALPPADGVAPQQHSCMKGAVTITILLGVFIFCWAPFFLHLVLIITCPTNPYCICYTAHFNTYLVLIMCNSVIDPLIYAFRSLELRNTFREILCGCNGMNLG
Test: cell-based or functional assay
Positions of bridges follow the written chain, without caps; N, C: chain ends. Non-standard residues stand in square brackets, D forms with d. d1Nal = N[C@H](Cc1cccc2ccccc12)C(=O)O; Nle = CCCC[C@H](N)C(=O)O
Form field: % max activation (one value per entry).
attribute_measured: % max activation (%)

| binder | attribute_measured | units_symbol | reported_result |
| --- | --- | --- | --- |
| Ac-R[Nle]CR[d1Nal]RWC-NH2 (disulfide 3-8; SMILES CCCC[C@H](NC(=O)[C@H](CCCNC(=N)N)NC(C)=O)C(=O)N[C@H]1CSSC[C@@H](C(N)=O)NC(=O)[C@H](Cc2c[nH]c3ccccc23)NC(=O)[C@H](CCCNC(=N)N)NC(=O)[C@@H](Cc2cccc3ccccc23)NC(=O)[C@H](CCCNC(=N)N)NC1=O) [CTX-1611] | % max activation | % | 58 |
| Ac-CGH[dF]RFC-NH2 (disulfide 1-7; SMILES CC(=O)N[C@H]1CSSC[C@@H](C(N)=O)NC(=O)[C@H](Cc2ccccc2)NC(=O)[C@H](CCCNC(=N)N)NC(=O)[C@@H](Cc2ccccc2)NC(=O)[C@H](Cc2c[nH]cn2)NC(=O)CNC1=O) [CTX-1637] | % max activation | % | 98 |
